# Test Description: inhibitors of Chlamydomonas gravitaxis, primary screen, whole organism, Chlamydomonas reinhardtii, WT vs cilia-less mutant, absorbance, 96-well (AID 463189);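 also: 0% = wild type cc124 cells in DMSO and 100% = ciliumless bld1 mutant cells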
# Condition Label: OD600 absorbance, 2 days, at 10 µM, stronger effect = higher value
Examples of molecules with documented inhibition follow.
Please state the figure in %; there is no need to write the unit.

Before answering, review these 5 worked examples.
{"Molecule": "CCOCc1nc(N)[nH]c(=O)c1Cc1ccc(OC(C)C)cc1", "Unit Spec": "%", "inhibition": 23.2}
{"Molecule": "O=C(CCC(=O)CCN1CCCCC1)CCN1CCCCC1", "Unit Spec": "%", "inhibition": 12.4}
{"Molecule": "Cc1nc2ccccc2cc1O", "Unit Spec": "%", "inhibition": 53.3}
{"Molecule": "COc1ccc(C2=CC(c3cccc(OC)c3)n3nnnc3N2)cc1 (stereo unspecified)", "Unit Spec": "%", "inhibition": 6.7}
{"Molecule": "Cn1c(=O)c2c(nc(NCC(O)CO)n2CCc2ccccc2)n(C)c1=O (stereo unspecified)", "Unit Spec": "%", "inhibition": 24.7}

Shift focus to the following entry.
QUERY: Name the recorded inhibition for `COc1nc(N(C)S(=O)(=O)c2ccc(C)cc2)nc(C)c1Cl` .
RESULT: -4.99

###

# Test Description: DUSP6 inhibitors restoring Erk phosphorylation by chemical complementation, primary imaging in DUSP6-transfected HeLa (AID 609)
# Condition Label: HeLa MKP-3 transfected, phospho-Erk imaging KS statistic; measured here: cell density z-score; at 10 µM; cells stimulated with TPA for 15 min
Observable: z-score
A bare number is all that is needed in reply.

Before answering, review these 3 worked examples.
{"Compound": "Oc1c(Cl)cc(Cl)cc1CNc1ccc(Br)cn1", "z-score": -1.08}
{"Compound": "Cc1cc(C)n(Cc2ccc(C(=O)NCCC3=CCCCC3)o2)n1", "z-score": 0.702}
{"Compound": "O=S(=O)(c1ccc2ccccc2c1)N(CC(O)CN1CCOCC1)c1ccccc1 (stereo unspecified)", "z-score": 0.984}

QUERY: Name the recorded z-score for `CCCCN(CCCC)CCCOC(=O)c1ccc(N)cc1` .
RESULT: -0.857

QUERY: Name the recorded z-score for CC(C[N+](C)(C)C)OC(N)=O (stereo unspecified) .
RESULT: -0.295

QUERY: Name the recorded z-score for Cc1ccccc1N1C(=O)C2ON(c3ccccc3)C(c3ccncc3)C2C1=O (stereo unspecified) .
RESULT: -1.56

QUERY: Name the recorded z-score for COc1ccc(OC)c(C(O)c2coc3ccc(O)c(CN4CCOCC4)c23)c1 (stereo unspecified) .
RESULT: -0.303

QUERY: Name the recorded z-score for CC(CCc1ccccc1)NCC(O)c1ccc(O)c(C(N)=O)c1 (stereo unspecified) .
RESULT: 0.375

QUERY: Name the recorded z-score for `COc1ccc2c(c1)[nH]c1c(=O)n(CCN(C)C)cnc12` .
RESULT: -1.37

QUERY: Name the recorded z-score for `Cc1cc(C)c(C#N)c(SCC(=O)N2CCN(Cc3ccccc3)CC2)n1` .
RESULT: -1.99

QUERY: Name the recorded z-score for `CCn1cc(C(=O)O)c(=O)c2cc(F)c(N3CCNCC3)cc21` .
RESULT: 0.515

###

# Test Description: inhibitors of TNFa-induced NFkB p65 translocation, primary screen, imaging, HUVEC, MLSMR starter and 10KST1 sets (AID 438);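 also: compound added about 3h40 before a 20 min TNFalpha stimulation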
# Condition Label: HUVEC TNFa-induced p65 nuclear translocation; measured here: nuclei count (cytotoxicity indicator), at 2.08 µM
Observable: cell count

Before answering, review these 8 worked examples.
{"Compound": "Cc1ccc(N(CC(O)CN2CCCC2)S(=O)(=O)c2ccc(C)cc2)cc1 (stereo not given)", "cell count": 415}
{"Compound": "COc1cccc(OC)c1C(=O)N1CCN(S(=O)(=O)c2ccc(C)cc2)CC1", "cell count": 565}
{"Compound": "COCCCNC(=O)C(C#N)c1nc2ccccc2nc1N1CCN(Cc2ccccc2)CC1 (stereo not given)", "cell count": 630}
{"Compound": "CCOC(=O)C1CCN(c2nc3ccccc3nc2C(C#N)C(=O)NCCc2ccccc2)CC1 (stereo not given)", "cell count": 441}
{"Compound": "CCCc1nn(C)c2c1C(c1cccnc1)C(C#N)=C(N)O2 (stereo not given)", "cell count": 521}
{"Compound": "CC1(C(=O)CSc2nc3ccccc3s2)CCC(=O)O1 (stereo not given)", "cell count": 609}
{"Compound": "CC[C@H](C)C(=O)O[C@H]1C[C@@H](C)C=C2C=C[C@H](C)[C@H](CC[C@@H]3C[C@@H](O)CC(=O)O3)[C@H]21", "cell count": 724}
{"Compound": "COc1ccc(C(=O)/C=C/Nc2cccc(C)n2)cc1OC", "cell count": 553}

QUERY: Name the recorded cell count for `O=S(=O)(c1cccc2cnccc12)N1CCCNCC1` .
RESULT: 401

QUERY: Name the recorded cell count for `Cn1ncc2c(Nc3ccccc3Br)ncnc21` .
RESULT: 339

QUERY: Name the recorded cell count for `CCOc1ccc2nc(SCC(=O)Nc3ncccn3)[nH]c2c1` .
RESULT: 478

QUERY: Name the recorded cell count for COCCOCCOCCC(=O)NC1CC2CCC1(C)C2(C)C (stereo not given) .
RESULT: 580

QUERY: Name the recorded cell count for `O=C1c2ccccc2C(=O)N1CCN1CCc2ccccc21` .
RESULT: 404

QUERY: Name the recorded cell count for `CC(C)(C)NCC(=O)c1c[nH]c2ccccc12` .
RESULT: 535

QUERY: Name the recorded cell count for `Cc1cc(C)n(CC(=O)n2nc(C)cc2C)n1` .
RESULT: 519

QUERY: Name the recorded cell count for `Cc1cc(C)c(C#N)c(SCC(=O)NC2CC2)n1` .
RESULT: 646

QUERY: Name the recorded cell count for `C[N+](C)(C)CCOP(=O)([O-])OC[C@H](O)CO` .
RESULT: 713

QUERY: Name the recorded cell count for `Cn1c(OCc2ccc3c(c2)OCO3)nc2c1c(=O)n(Cc1cccc(Cl)c1)c(=O)n2C` .
RESULT: 646

QUERY: Name the recorded cell count for COc1cccc(/C=C2/CN(C)CC3=C2OC(N)=C(C#N)C3c2cccc(OC)c2)c1 (stereo not given) .
RESULT: 562

QUERY: Name the recorded cell count for Cn1c(=O)n(Cc2ccccc2)c(=O)c2c1nc(NCC1CCCO1)n2Cc1ccccc1 (stereo not given) .
RESULT: 665

QUERY: Name the recorded cell count for `COC(=O)CSc1nnc2n(-c3ccc(OC)cc3)c(=O)c3c4c(sc3n12)CCCCC4` .
RESULT: 607

QUERY: Name the recorded cell count for `O=C(CCCN1CC=C(n2c(=O)[nH]c3ccccc32)CC1)c1ccc(F)cc1` .
RESULT: 658

QUERY: Name the recorded cell count for `CC(=O)C(=[N+]=[N-])C(=O)NCc1ccccc1` .
RESULT: 474

QUERY: Name the recorded cell count for `Nc1nc2ccc(OC(F)(F)F)cc2s1` .
RESULT: 540

QUERY: Name the recorded cell count for `CC1(C)CC(=O)C(C=NCCN2CCN(C(=O)C34CC5CC(CC(C5)C3)C4)CC2)=C(O)C1` .
RESULT: 573

QUERY: Name the recorded cell count for CCC(C(=O)OCCN(CC)CC)c1ccccc1 (stereo not given) .
RESULT: 572

QUERY: Name the recorded cell count for `O=C(OCCN1CCOCC1)c1ccc(OCCN2CCOCC2)cc1` .
RESULT: 573

QUERY: Name the recorded cell count for `CCCCc1cc(=O)oc2c(CN(C)C)c(O)c(Cl)cc12` .
RESULT: 409

QUERY: Name the recorded cell count for CCOc1ccc(/C(O)=C2/C(=O)C(=O)N(CCN(C)C)C2c2ccccc2)cc1Cl (stereo not given) .
RESULT: 539

QUERY: Name the recorded cell count for `COc1cc2c(C(=O)N3CCN(c4ccccc4)CC3)c(C)oc2cc1Br` .
RESULT: 539

QUERY: Name the recorded cell count for N#CC1=C(SCc2ccccc2)NC2=C(C(=O)CCC2)C1c1ccc2c(c1)OCO2 (stereo not given) .
RESULT: 490

QUERY: Name the recorded cell count for `CCOc1cccc(-c2nn3c(-c4ccco4)nnc3s2)c1` .
RESULT: 591

QUERY: Name the recorded cell count for `OC[C@H]1O[C@@H](n2cnc3c(NC4CCCC4)ncnc32)[C@H](O)[C@@H]1O` .
RESULT: 528

QUERY: Name the recorded cell count for `CCc1nnc(NC(=O)CSc2nc(C)c3c(c2C#N)CCCC3)s1` .
RESULT: 613
